- Test system: LXF-289
- experimental_protocol: relative viability (nuclei count vs DMSO), 5 days (fraction); higher = more cells survive
- test_context: first compound 20 µM
Recorded measurements of relative viability, one per entry
Answer with a number only.

Observe how each entry below is paired with its result.
{"compound": "Cc1csc(=NC2CCCCC2)n1/N=C/c1ccc(O)c(O)c1O [MIM1] + C[C@@H](Oc1cc(-c2cnn(C3CCNCC3)c2)cnc1N)c1c(Cl)ccc(F)c1Cl [Crizotinib] (partner 1 µM)", "relative viability": 0.388}
{"compound": "Cc1csc(=NC2CCCCC2)n1/N=C/c1ccc(O)c(O)c1O [MIM1] + O=C(c1cc(Cc2n[nH]c(=O)c3ccccc23)ccc1F)N1CCN(C(=O)C2CC2)CC1 [Olaparib] (partner 8 µM)", "relative viability": 0.179}

Then there is this compound:
Query string: Answer with relative viability of Cc1csc(=NC2CCCCC2)n1/N=C/c1ccc(O)c(O)c1O [MIM1] + CS(=O)(=O)N1CCN(Cc2cc3nc(-c4cccc5[nH]ncc45)nc(N4CCOCC4)c3s2)CC1 [Pictilisib] (partner 1 µM) measured for LXF-289.
Result string: 0.522
